This collection of values is drawn from patent US8129396B2.

# measured_on: Aurora A kinase (Homo sapiens)
# Sequence (O14965 1-403): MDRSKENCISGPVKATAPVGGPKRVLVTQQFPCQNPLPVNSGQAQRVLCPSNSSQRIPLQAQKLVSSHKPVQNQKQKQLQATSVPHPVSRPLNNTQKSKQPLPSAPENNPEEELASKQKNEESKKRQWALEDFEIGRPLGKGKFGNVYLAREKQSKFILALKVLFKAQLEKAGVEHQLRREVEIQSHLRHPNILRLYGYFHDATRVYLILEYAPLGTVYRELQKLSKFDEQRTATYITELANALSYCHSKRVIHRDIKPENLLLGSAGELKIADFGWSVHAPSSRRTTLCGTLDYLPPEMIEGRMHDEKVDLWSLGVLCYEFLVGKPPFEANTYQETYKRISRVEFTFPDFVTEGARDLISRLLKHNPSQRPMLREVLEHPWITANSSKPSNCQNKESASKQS
measure_name: IC50

INSERT INTO assay_data (molecule, measured_result) VALUES
  ('NC(=O)/C(=C1\Nc2ccc(S(=O)(=O)NCCCN3CCOCC3)cc2S1)c1nccc(C(F)(F)F)n1 [Compound 127A]', '20 nM'),
  ('CCN(CCCn1ccnc1)C(=O)c1ccc2c(c1)N/C(=C(/C(N)=O)c1nccc(C(F)(F)F)n1)N2 [Compound 48A]', '10 nM'),
  ('CCN(CC)CC(=O)Nc1ccc2c(c1)N/C(=C(/C(N)=O)c1nccc(C(F)(F)F)n1)N2 [Compound 75A]', '60 nM');

###

# System: HCT116 (human colon carcinoma) cells
# assay_comment: HCT116 cytotoxicity assay (CellTiter-Glo)
# Format: cell-based
# cond: HCT-116, 72 h, cytotoxicity, three days culture, read-out: HCT116 IC50
measure_name: IC50 (nM)

INSERT INTO assay_data (compound, qual, measured_result) VALUES
  ('NC(=O)/C(=C1\Nc2ccccc2S1)c1ncc(C(=O)NCCCN2CCOCC2)c(C(F)(F)F)n1 [Compound 131A]', '=', 2000),
  ('NC(=O)/C(=C1\Nc2ccc(CCN3CCSCC3)cc2S1)c1nccc(C(F)(F)F)n1 [Compound 103A]', '=', 2000),
  ('Cc1ccnc(C(C(N)=O)=C2Nc3ccccc3N2)n1 [Compound 19A]', '=', 20000),
  ('NC(=O)C(=C1Nc2ccc(C(=O)NCCCN3CCOCC3)cc2S1)c1nccc(C(F)(F)F)n1 (single isomer, unassigned) [Compound 40A]', '=', 200),
  ('CCN(C(=O)C1CCN(C)CC1)c1ccc2c(c1)N/C(=C(/C(N)=O)c1nccc(C(F)(F)F)n1)N2 [Compound 141A]', '=', 900),
  ('NC(=O)/C(=C1\Nc2ccc(NC(=O)CCn3ccnc3)cc2N1)c1nccc(C(F)(F)F)n1 [Compound 87A]', '=', 200),
  ('CC(C)(N)C(=O)Nc1ccc2c(c1)N/C(=C(/C(N)=O)c1nccc(C(F)(F)F)n1)N2 [Compound 81A]', '=', 300),
  ('Cc1cc(C(=O)O)nc(/C(C(N)=O)=C2/Nc3ccccc3S2)n1 [Compound 24A]', '>', 50000),
  ('NC(=O)/C(=C1\Nc2ccc(CN3CCOCC3)cc2S1)c1nccc(C(F)(F)F)n1 [Compound 91A]', '=', 300),
  ('CN1CCN(S(=O)(=O)c2ccc3c(c2)S/C(=C(/C(N)=O)c2nccc(C(F)(F)F)n2)N3)CC1 [Compound 126A]', '=', 2000),
  ('COc1ccnc(/C(C(N)=O)=C2/Nc3ccccc3S2)n1 [Compound 16A]', '=', 2000),
  ('NCCNC(=O)c1ccc2c(c1)S/C(=C(/C(N)=O)c1nccc(C(F)(F)F)n1)N2 [Compound 63A]', '=', 200),
  ('NC(=O)/C(=C1\Nc2cccc(C(=O)NCCCN3CCOCC3)c2S1)c1nccc(C(F)(F)F)n1 [Compound 52A]', '=', 1000),
  ('NC(=O)/C(=C1\Nc2ccc(NC(=O)C3CC3)cc2N1)c1nccc(C(F)(F)F)n1 [Compound 33A]', '=', 300);
